- test.protocol: Pharmacokinetic study in dogs
- Type: in vivo, Beagle dog
- protocol.conditions: Beagle, dog, plasma, po; Dogs., 1 mg/kg, p.o.; read-out: Bioavailability (% F)
readout.name: bioavailability
Report the figure along with its unit, number first.

QUERY: Find the recorded bioavailability belonging to CC[C@@H]1SC2(CCN(C)CC2)NC1=O [AF267B] and report it.
RESULT: 53%
